Where do the numbers come from? From patent US5565447A.

biological target: 5HT1D receptors (Bos taurus, UniProt F1MGM3); construct: calf caudate nucleus membrane protein; from tissue; host or cells: calf caudate nucleus membranes; experiment: Binding to 5HT1D receptors (125I-GTI displacement, calf caudate nucleus membranes); conditions: 5HT1D; calf caudate nucleus membrane, 100 pM 125I-GTI, pH 7.4, 37° C., 30 minutes; read-out: Binding IC50 125I-GTI
Sequence (F1MGM3 1-403): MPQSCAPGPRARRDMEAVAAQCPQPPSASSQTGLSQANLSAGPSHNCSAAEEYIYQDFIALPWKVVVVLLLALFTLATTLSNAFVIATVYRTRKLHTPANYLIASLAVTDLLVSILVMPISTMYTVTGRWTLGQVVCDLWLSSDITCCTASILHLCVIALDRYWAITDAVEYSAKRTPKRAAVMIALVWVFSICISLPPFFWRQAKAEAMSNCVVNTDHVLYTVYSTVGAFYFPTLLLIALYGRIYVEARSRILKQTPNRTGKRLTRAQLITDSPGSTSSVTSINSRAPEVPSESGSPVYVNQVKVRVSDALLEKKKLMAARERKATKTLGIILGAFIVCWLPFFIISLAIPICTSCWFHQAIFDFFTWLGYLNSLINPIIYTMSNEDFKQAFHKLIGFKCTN
pIC50: −log10 of the molar value.

compound | pIC50
CN(C)CCc1c[nH]c2ccc(CS(=O)(=O)N3CCCC3)cc12.Cl [Compound 1, hydrochloride] | 7.97
CNS(=O)(=O)Cc1ccc2[nH]cc(CCN(C)C)c2c1 [Sumatriptan, reference compound] | 7.98
